Source listed as patent US10766952B2.

Assayed System: T1, rat α-CGRP (Rattus norvegicus, UniProt P01256)
T1 construct: rat α (1-37); host or cells: synthetic peptide
T1 sequence (P01256 83-119 limits assumed): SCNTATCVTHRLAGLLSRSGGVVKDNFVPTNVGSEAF
Assay Method Text: Biacore affinity of antibody G1 Fab and variants to rat α-CGRP
Type: binding
Run Conditions: 37° C., Fab, screening mode unless underlined
As shown below, each of these molecules has a reported α-rat koff value.
Endpoint Label: α-rat koff (s⁻¹)

[[record]]
molecule = "M65: G1 variant: L1 R28N,T30G; L2 G50A,L56I; H2 E54K,A57C; HC-FW3 L99T,A100V (antibody, V domains shown) VH: EVQLVESGGGLVQPGGSLRLSCAASGFTFSNYWISWVRQAPGKGLEWVAEIRSKSDCSATHYAEAVKGRFTISRDNAKNSLYLQMNSLRAEDTAVYYCTVYFDYGLAIQNYWGQGTLVTVSS VL: EIVLTQSPATLSLSPGERATLSCKASKNVGTYVSWYQQKPGQAPRLLIYAASNRYIGIPARFSGSGSGTDFTLTISSLEPEDFAVYYCSQSYNYPYTFGQGTKLEIK"
meas_value = 0.00407

[[record]]
molecule = "M72: G1 variant: L1 R28N,T30G; L2 L56S; H2 E54K; HC-FW3 L99T,A100V (antibody, V domains shown) VH: EVQLVESGGGLVQPGGSLRLSCAASGFTFSNYWISWVRQAPGKGLEWVAEIRSKSDASATHYAEAVKGRFTISRDNAKNSLYLQMNSLRAEDTAVYYCTVYFDYGLAIQNYWGQGTLVTVSS VL: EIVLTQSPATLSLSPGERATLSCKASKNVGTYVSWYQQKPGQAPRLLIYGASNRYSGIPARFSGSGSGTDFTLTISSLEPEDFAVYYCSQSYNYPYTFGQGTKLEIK"
meas_value = 0.00395

